experiment: Drug concentration in B6/J mouse plasma at 10 mg/kg, po administered via gavage after 1 hr by mass spectrometry based UHPLC analysis; type: ADME, organism-based
Let's look at some compounds and their measured concentration at 1 h.

- smiles notation: "CN(CC(=O)N1CCN(c2cccc3ccccc23)CC1)C(=O)c1cccs1"
  concentration at 1 h: "1500 nM"
- smiles notation: "CC(C)(C)C(=O)N1CCN(c2cncc3ccccc23)CC1"
  concentration at 1 h: "1000 nM"

* * *

test: Unbound brain to plasma partition coefficient of the compound in B6/J mouse at 10 mg/kg, po administered via gavage after 30 mins by mass spectrometry based UHPLC analysis; assay type: ADME, organism-based; details: read-out: K(p,uu,brain)

- smiles notation: "CN(CC(=O)N1CCN(c2cncc3ccccc23)CC1)C(=O)c1cccs1"
  Kp uu at 0.5 h: 0.04
